assay comment: XTT cytotoxicity assay
Format: cell-based
particulars: human, HEL cells, 3 days treatment
reported endpoint: CC50 at 3 days (µM)

compound	recorded result
O=C1O[C@H]2[C@@H]3OC(=O)c4cc(O)c(O)c(O)c4-c4c(O)c(O)c5oc(=O)c6c(c(O)c(O)c7oc(=O)c4c5c76)-c4c(cc(O)c(O)c4O)C(=O)OC[C@H]3OC(O)[C@@H]2OC(=O)c2cc(O)c(O)c(O)c2-c2c1cc(O)c(O)c2O (mixture of isomers)	299

###

assay comment: XTT cytotoxicity assay
Format: cell-based
particulars: African green monkey; Vero cells, XTT assay, 3 days treatment; read-out: CC50

molecule	CC50 at 3 days (µM)
O=C1O[C@H]2[C@@H]3OC(=O)c4cc(O)c(O)c(O)c4-c4c(O)c(O)c5oc(=O)c6c(c(O)c(O)c7oc(=O)c4c5c76)-c4c(cc(O)c(O)c4O)C(=O)OC[C@H]3OC(O)[C@@H]2OC(=O)c2cc(O)c(O)c(O)c2-c2c1cc(O)c(O)c2O (mixture of isomers)	151

###

assay comment: XTT cytotoxicity assay
Assay type: cell-based
particulars: human, Huh-7.5 cells, 3 days treatment

molecule	display unit	CC50 at 3 days
O=C1O[C@H]2[C@@H]3OC(=O)c4cc(O)c(O)c(O)c4-c4c(O)c(O)c5oc(=O)c6c(c(O)c(O)c7oc(=O)c4c5c76)-c4c(cc(O)c(O)c4O)C(=O)OC[C@H]3OC(O)[C@@H]2OC(=O)c2cc(O)c(O)c(O)c2-c2c1cc(O)c(O)c2O (mixture of isomers)	µM	223

###

assay comment: XTT cytotoxicity assay
Assay type: cell-based
particulars: human, HEp-2 cells, 3 days treatment

compound	CC50 at 3 days [µM]
O=C1O[C@H]2[C@@H]3OC(=O)c4cc(O)c(O)c(O)c4-c4c(O)c(O)c5oc(=O)c6c(c(O)c(O)c7oc(=O)c4c5c76)-c4c(cc(O)c(O)c4O)C(=O)OC[C@H]3OC(O)[C@@H]2OC(=O)c2cc(O)c(O)c(O)c2-c2c1cc(O)c(O)c2O (mixture of isomers)	265

###

assay comment: XTT cytotoxicity assay
Type: cell-based
particulars: Chinese hamster; CHO-SLAM cells, XTT assay, 3 days treatment; read-out: CC50
reported endpoint: CC50 at 3 days (µM)

compound	recorded result
O=C1O[C@H]2[C@@H]3OC(=O)c4cc(O)c(O)c(O)c4-c4c(O)c(O)c5oc(=O)c6c(c(O)c(O)c7oc(=O)c4c5c76)-c4c(cc(O)c(O)c4O)C(=O)OC[C@H]3OC(O)[C@@H]2OC(=O)c2cc(O)c(O)c(O)c2-c2c1cc(O)c(O)c2O (mixture of isomers)	284
